These entries and their values trace back to paper PMC6429200.

test system: four EV-A71 strains (BrCr, H, Shenzhen98, Jiangsu52); test: CPE inhibition assay, summary over four EV-A71 strains; type: cell-based, Enterovirus 71 (EV-A71); conditions: Enterovirus A, EV71 / EVA71, read-out: Anti-EV71 IC50
pIC50: −log10 of the molar value.
experimentalEndpoint: pIC50

Query block: Endpoint output: pIC50 of O=C1c2ccccc2CN1c1ccc(Cl)cc1 . Value?
Result block: 5.82 to 5.89

---

Attribute: CC50 at 3 days
assay: Cytotoxicity assay (CPE) on Vero cells; assay type: cell-based; settings: African green monkey; Vero cells, 3 days of incubation, Reed–Muench; read-out: CC50
The reply should consist of the numeric value with the unit placed after it.

[
  {
    "compound": "CCCNc1ccc2c(c1)CN(c1ccc(OC)cc1)C2=O",
    "experimentalEndpoint": "CC50 at 3 days",
    "recordedMeasurement": "231 µM"
  },
  {
    "compound": "CCCNc1ccc2c(c1)C(=O)N(c1ccc(OC)cc1)C2",
    "experimentalEndpoint": "CC50 at 3 days",
    "recordedMeasurement": "68.4 µM"
  },
  {
    "compound": "COc1ccc(N2Cc3cc(N)ccc3C2=O)cc1",
    "experimentalEndpoint": "CC50 at 3 days",
    "recordedMeasurement": "159 µM"
  },
  {
    "compound": "O=C1c2ccccc2CN1c1ccc2ccncc2c1",
    "experimentalEndpoint": "CC50 at 3 days",
    "recordedMeasurement": "96.5 µM"
  },
  {
    "compound": "O=C1c2ccccc2CN1c1ccccc1",
    "experimentalEndpoint": "CC50 at 3 days",
    "recordedMeasurement": "370 µM"
  }
]

Query block: Fill in the blank: the reported CC50 at 3 days of O=C1c2cc(Nc3ccccc3)ccc2CN1c1ccc(Cl)cc1 [Compound D2] is ____.
Result block: 115 µM

Query block: O=C1c2ccccc2CN1c1ccc(Cl)cc1 , same question.
Result block: 257 µM

Query block: Moving on to O=C1c2ccccc2CN1c1ccc(-c2ccccc2)cc1 [Compound A6, 2-([1,1’-biphenyl]-4-yl)isoindolin-1-one]
Result block: 218 µM

Query block: Same question for CN1CCN(C(=O)c2ccc(N3Cc4ccccc4C3=O)cc2)CC1 please.
Result block: 115 µM

---

tested on: four EV-A71 strains (BrCr, H, Shenzhen98, Jiangsu52); test: CPE inhibition assay, summary over four EV-A71 strains; format: cell-based, Enterovirus 71 (EV-A71); settings: Enterovirus A, EVA71, Vero, read-out: EC50 towards four EV-A71 strains
Reported values of EC50 for individual entries

Query block: Endpoint output: EC50 of CCCNc1ccc2c(c1)C(=O)N(c1ccc(OC)cc1)C2 [Compound B1] . Value?
Result block: < 10 µM

Query block: Next: COc1ccc(N2Cc3ccccc3C2=O)cc1 [Compound A7, 2-(4-methoxyphenyl)isoindolin-1-one]
Result block: < 10 µM

Query block: Also check O=C1c2ccccc2CN1c1ccc(Cl)cc1 [Compound A3, 2-(4-chlorophenyl)isoindolin-1-one]
Result block: 1.23 to 1.76 µM
